Test protocol: in vivo
Cond: male, Wistar Han, rat, in vivo; day 7; single IM Example 16A 20 mg/kg equivalent of EFdA; read-out: Mean concentration of Example 16A

Compound: C#C[C@]1(COP(=O)(N[C@@H](C)C(=O)OCCCCCCCCCCCCCCCCCCCCCC)Oc2ccccc2)O[C@@H](n2cnc3c(N)nc(F)nc32)C[C@@H]1O (single isomer, unassigned) [Example 16A]
concentration at 7 day [ng/mL]: 1.03

* * *

Test protocol: in vivo
Cond: male, Wistar Han, rat, in vivo; day 63; single IM Example 39A 58 mg/kg; read-out: Mean concentration of Example 39A
Reported metric: concentration at 63 day (ng/mL)

Compound: C#C[C@]1(COP(=O)(N[C@@H](Cc2cc(F)cc(F)c2)C(=O)OCCCCCCCCCCCCCCCC)Oc2ccccc2)O[C@@H](n2cnc3c(N)nc(F)nc32)C[C@@H]1O (single isomer, unassigned) [Example 39A]
Reported metric: concentration at 63 day
Reading: 2.7

* * *

Test protocol: in vivo
Cond: male, Wistar Han, rat, in vivo; day 70; single IM Example 1B 62 mg/kg; read-out: Mean concentration of Example 1B

Compound: C#C[C@]1(COP(=O)(N[C@@H](Cc2ccccc2)C(=O)OCCCCCCCCCCCCCCCCCCCCCC)Oc2ccccc2)O[C@@H](n2cnc3c(N)nc(F)nc32)C[C@@H]1O (single isomer, unassigned) [Example 1B]
concentration at 70 day (ng/mL): 0.767

* * *

Test protocol: EFdA Rat PK Studies (subcutaneous and intramuscular groups), plasma concentration by LC-MS/MS
Assay type: in vivo, Wistar Han rats
Cond: male, Wistar Han, rat, plasma, sc, 20 mg/kg, 7 hr; SC 20 mg/kg; plasma; read-out: Assayed Concentrations of EFdA, Mean

Compound: C#C[C@]1(CO)O[C@@H](n2cnc3c(N)nc(F)nc32)C[C@@H]1O [EFdA]
concentration at 7 h: 303 ng/mL

* * *

Test protocol: in vivo
Cond: male, Wistar Han, rat, in vivo; day 42; single IM Example 40A 60 mg/kg; read-out: Mean concentration of Example 40A
Reported metric: concentration at 42 day (ng/mL)

Compound: C#C[C@]1(COP(=O)(N[C@@H](Cc2cc(F)cc(F)c2)C(=O)OCCCCCCCCCCCCCCCCCC)Oc2ccccc2)O[C@@H](n2cnc3c(N)nc(F)nc32)C[C@@H]1O (single isomer, unassigned) [Example 40A]
Measurement units: ng/mL
Reading: 13.2

* * *

Test protocol: EFdA Rat PK Studies (subcutaneous and intramuscular groups), plasma concentration by LC-MS/MS
Format: in vivo, Wistar Han rats
Cond: male, Wistar Han, rat, plasma, intramuscular, 20 mg/kg, 4 hr; IM 20 mg/kg; plasma; read-out: Assayed Concentrations of EFdA, Mean
Reported metric: concentration at 4 h (ng/mL)

Line notation: C#C[C@]1(CO)O[C@@H](n2cnc3c(N)nc(F)nc32)C[C@@H]1O
Reported metric: concentration at 4 h
Reading: 610

* * *

Test protocol: EFdA Rat PK Studies (subcutaneous and intramuscular groups), plasma concentration by LC-MS/MS
Format: in vivo, Wistar Han rats
Cond: male, Wistar Han, rat, plasma, sc, 20 mg/kg, Day 6; SC 20 mg/kg; plasma; read-out: Assayed Concentrations of EFdA, individual rats
Reported metric: concentration at 6 day (ng/mL)

Compound: C#C[C@]1(CO)O[C@@H](n2cnc3c(N)nc(F)nc32)C[C@@H]1O [EFdA]
Reading: 0.117

* * *

Test protocol: in vivo
Cond: male, Wistar Han, rat, in vivo; day 14; single IM Example 2A 56 mg/kg; read-out: Mean concentration of Example 2A

Compound: C#C[C@]1(COP(=O)(N[C@@H](Cc2ccccc2)C(=O)OCCCCCCCCCCCCCCCC)Oc2ccccc2)O[C@@H](n2cnc3c(N)nc(F)nc32)C[C@@H]1O (single isomer, unassigned)
Measurement units: ng/mL
concentration at 14 day: 3.35

* * *

Test protocol: EFdA Rat PK Studies (subcutaneous and intramuscular groups), plasma concentration by LC-MS/MS
Type: in vivo, Wistar Han rats
Cond: male, Wistar Han, rat, plasma, intramuscular, 20 mg/kg, 72 hr; IM 20 mg/kg; plasma; read-out: Assayed Concentrations of EFdA, individual rats

Line notation: C#C[C@]1(CO)O[C@@H](n2cnc3c(N)nc(F)nc32)C[C@@H]1O
concentration at 72 h [ng/mL]: 0.301

* * *

Test protocol: in vivo
Cond: male, Wistar Han, rat, in vivo; day 56; single IM Example 2A 56 mg/kg; read-out: Mean concentration of Example 2A

Molecule: C#C[C@]1(COP(=O)(N[C@@H](Cc2ccccc2)C(=O)OCCCCCCCCCCCCCCCC)Oc2ccccc2)O[C@@H](n2cnc3c(N)nc(F)nc32)C[C@@H]1O (single isomer, unassigned)
concentration at 56 day / ng/mL: 1.14

* * *

Test protocol: in vivo
Cond: male, Wistar Han, rat, in vivo; day 84; single IM Example 1B 62 mg/kg; read-out: Mean concentration of Example 1B
Reported metric: concentration at 84 day

Compound: C#C[C@]1(COP(=O)(N[C@@H](Cc2ccccc2)C(=O)OCCCCCCCCCCCCCCCCCCCCCC)Oc2ccccc2)O[C@@H](n2cnc3c(N)nc(F)nc32)C[C@@H]1O (single isomer, unassigned) [Example 1B]
Reading: 2.48 ng/mL

* * *

Test protocol: in vivo
Cond: male, Wistar Han, rat, in vivo; day 14; single IM Example 20A 57 mg/kg; read-out: Mean concentration of Example 20A
Reported metric: concentration at 14 day

Compound: C#C[C@]1(COP(=O)(N[C@@H](Cc2ccccc2)C(=O)OCCCCCCCCCCCCCCCCC)Oc2ccccc2)O[C@@H](n2cnc3c(N)nc(F)nc32)C[C@@H]1O (single isomer, unassigned) [Example 20A]
Reading: 13.8 ng/mL

* * *

Test protocol: in vivo
Cond: male, Wistar Han, rat, in vivo; day 77; single IM Example 40A 60 mg/kg; read-out: Mean concentration of Example 40A

Compound: C#C[C@]1(COP(=O)(N[C@@H](Cc2cc(F)cc(F)c2)C(=O)OCCCCCCCCCCCCCCCCCC)Oc2ccccc2)O[C@@H](n2cnc3c(N)nc(F)nc32)C[C@@H]1O (single isomer, unassigned) [Example 40A]
Measurement units: ng/mL
concentration at 77 day: 11.7

* * *

Test protocol: in vivo
Cond: male, Wistar Han, rat, in vivo; day 21; single IM Example 19A 55 mg/kg; read-out: Mean concentration of Example 19A
Reported metric: concentration at 21 day

Compound: C#C[C@]1(COP(=O)(N[C@@H](Cc2ccccc2)C(=O)OCCCCCCCCCCCCCCC)Oc2ccccc2)O[C@@H](n2cnc3c(N)nc(F)nc32)C[C@@H]1O (single isomer, unassigned) [Example 19A]
Reading: 1.45 ng/mL

* * *

Test protocol: in vivo
Cond: male, Wistar Han, rat, in vivo; day 1; single IM Example 37A 56 mg/kg; read-out: Mean concentration of Example 37A

Compound: C#C[C@]1(COP(=O)(N[C@@H](C)C(=O)OC(CCCCCCCCCC)CCCCCCCCCC)Oc2ccccc2)O[C@@H](n2cnc3c(N)nc(F)nc32)C[C@@H]1O (single isomer, unassigned) [Example 37A]
concentration at 1 day: 17.9 ng/mL

* * *

Test protocol: in vivo
Cond: male, Wistar Han, rat, in vivo; day 28; single IM Example 1A 20 mg/kg; read-out: Mean concentration of Example 1A
Reported metric: concentration at 28 day (ng/mL)

Compound: C#C[C@]1(COP(=O)(N[C@@H](Cc2ccccc2)C(=O)OCCCCCCCCCCCCCCCCCCCCCC)Oc2ccccc2)O[C@@H](n2cnc3c(N)nc(F)nc32)C[C@@H]1O (single isomer, unassigned)
Reading: 2.72

* * *

Test protocol: in vivo
Cond: male, Wistar Han, rat, in vivo; day 35; single IM 63 mg/kg; read-out: Mean concentration of Example 26A
Description: General Protocol for Prodrugs Rat PK Studies Conducted at ChemPartner, China A total of three naïve male Wistar Han rats, 200-250 g, were received from Beijing VR Laboratory Animal Co. LTD. Following an acclimation period, the animals were assigned to the study based on acceptable health as determined by a staff veterinarian and catheter patency. Fasting of the animals before or after dosing was not required. […]
Reported metric: concentration at 35 day (ng/mL)

Compound: C#C[C@]1(COP(=O)(N[C@@H](Cc2ccccc2)C(=O)OC(CCCCCCCCCCC)CCCCCCCCCCC)Oc2ccccc2)O[C@@H](n2cnc3c(N)nc(F)nc32)C[C@@H]1O (single isomer, unassigned) [Example 26A]
Reported metric: concentration at 35 day
Reading: 14.4

* * *

Test protocol: in vivo
Cond: male, Wistar Han, rat, in vivo; day 56; single IM Example 39A 58 mg/kg; read-out: Mean concentration of Example 39A

Compound: C#C[C@]1(COP(=O)(N[C@@H](Cc2cc(F)cc(F)c2)C(=O)OCCCCCCCCCCCCCCCC)Oc2ccccc2)O[C@@H](n2cnc3c(N)nc(F)nc32)C[C@@H]1O (single isomer, unassigned) [Example 39A]
Measurement units: ng/mL
concentration at 56 day: 3.42

Numbers sourced from patent US20230151049A1.
